Target: T1, recombinant human soluble gpNMB (recombinant human gpNMB-FLAG-His) (human, UniProt Q14956 23-498)
T1 sequence: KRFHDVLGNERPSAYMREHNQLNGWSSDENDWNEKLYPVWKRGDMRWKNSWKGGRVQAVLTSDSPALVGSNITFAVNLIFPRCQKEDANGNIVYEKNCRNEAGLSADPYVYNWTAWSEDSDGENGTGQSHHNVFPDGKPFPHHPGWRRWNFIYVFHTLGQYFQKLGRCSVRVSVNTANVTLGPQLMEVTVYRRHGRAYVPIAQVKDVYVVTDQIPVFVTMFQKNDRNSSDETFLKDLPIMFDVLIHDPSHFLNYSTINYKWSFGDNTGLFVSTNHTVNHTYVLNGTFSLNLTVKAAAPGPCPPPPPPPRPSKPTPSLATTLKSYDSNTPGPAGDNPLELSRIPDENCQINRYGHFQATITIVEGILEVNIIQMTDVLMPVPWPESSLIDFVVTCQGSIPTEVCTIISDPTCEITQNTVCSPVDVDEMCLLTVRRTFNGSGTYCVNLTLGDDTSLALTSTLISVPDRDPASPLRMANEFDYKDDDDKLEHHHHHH
Test: antigen ELISA
Record form. Attribute: EC50. Fill in for each entry.
Answers are plain numbers, in nM.

Consider the reported EC50 for these binders:
>>> recorded_result("hGPN06-1_H1L1 VL H33A (antibody, V domains shown) VH: QVQLVQSGAEVKKPGASVKVSCKASGYTFTDNWMGWVKQRPGQGLEWIGAIDPSDSFTNYNQNFKGRVTMTVDTSISTAYMELSRLRSDDSAVYFCTRSGYYGSPKLGGDYWGQGTLVTVSS VL: EIVLTQSPSSLSASVGDRVTITCSASSSISYMAWYQQKSGTAPKLLIYSTSNLASGVPSRFSGSGSGTDFTFTISSLQPEDAATYYCHQWNSYPCTFGGGTKLEIK")
42.9
>>> recorded_result("hGPN06-1_H1L1 VL T96A (antibody, V domains shown) VH: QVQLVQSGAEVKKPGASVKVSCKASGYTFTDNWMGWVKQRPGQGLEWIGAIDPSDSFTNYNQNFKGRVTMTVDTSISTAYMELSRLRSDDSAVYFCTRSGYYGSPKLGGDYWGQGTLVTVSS VL: EIVLTQSPSSLSASVGDRVTITCSASSSISYMHWYQQKSGTAPKLLIYSTSNLASGVPSRFSGSGSGTDFTFTISSLQPEDAATYYCHQWNSYPCAFGGGTKLEIK")
1.03

Form: binder = hGPN06-1_H1L1 VL Q89A (antibody, V domains shown) VH: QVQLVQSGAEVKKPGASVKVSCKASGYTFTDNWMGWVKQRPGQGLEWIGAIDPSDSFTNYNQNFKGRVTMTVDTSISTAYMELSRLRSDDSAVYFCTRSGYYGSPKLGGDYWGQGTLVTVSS VL: EIVLTQSPSSLSASVGDRVTITCSASSSISYMHWYQQKSGTAPKLLIYSTSNLASGVPSRFSGSGSGTDFTFTISSLQPEDAATYYCHAWNSYPCTFGGGTKLEIK ; EC50 = 27.5
